Catalogue of IC50 values
- target.under.test: Amine oxidase [flavin-containing] B (Homo sapiens)
- Sequence (P27338 whole entry): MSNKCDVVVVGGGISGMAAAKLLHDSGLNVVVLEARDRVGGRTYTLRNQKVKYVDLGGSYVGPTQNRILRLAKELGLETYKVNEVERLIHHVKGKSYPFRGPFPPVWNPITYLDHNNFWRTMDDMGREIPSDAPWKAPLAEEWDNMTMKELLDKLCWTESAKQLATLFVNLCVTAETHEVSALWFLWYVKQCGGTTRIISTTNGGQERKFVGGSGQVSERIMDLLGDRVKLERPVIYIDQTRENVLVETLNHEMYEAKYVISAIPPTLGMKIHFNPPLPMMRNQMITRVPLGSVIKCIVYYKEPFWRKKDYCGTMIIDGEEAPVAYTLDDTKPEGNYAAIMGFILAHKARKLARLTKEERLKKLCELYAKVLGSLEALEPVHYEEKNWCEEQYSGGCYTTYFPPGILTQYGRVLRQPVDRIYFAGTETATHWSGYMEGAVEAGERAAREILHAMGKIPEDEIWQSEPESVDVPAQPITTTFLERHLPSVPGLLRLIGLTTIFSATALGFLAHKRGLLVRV
- test.method.notes: Inhibition of recombinant human MAO-B assessed as inhibition of 4-hydroxyquinoline formation using kynuramine as substrate incubated for 20 mins by fluorescence assay
property: IC50 (nM)

                    smiles_representation                         target_under_test  unit_tag  reported
0    O=C1/C(=C(\O)c2cccc(Br)c2)Sc2ccccc21  Amine oxidase [flavin-containing] B (Homo sapiens)        nM       350
1    COc1ccc2c(c1)C/C(=C\c1ccc(Br)o1)C2=O  Amine oxidase [flavin-containing] B (Homo sapiens)        nM        40
2  COc1ccc2c(c1)O/C(=C\n1ccc3ccccc31)C2=O  Amine oxidase [flavin-containing] B (Homo sapiens)        nM       2.6
